Overview of reported IC50 across a group of molecules:
- SYSTEM_TESTED: KDR (VEGFR2) (Homo sapiens, UniProt P35968)
- Construct: phosphorylation of KDR expressed in human umbilical vein endothelial cells (HUVECs)
- Sequence (P35968 20-1356): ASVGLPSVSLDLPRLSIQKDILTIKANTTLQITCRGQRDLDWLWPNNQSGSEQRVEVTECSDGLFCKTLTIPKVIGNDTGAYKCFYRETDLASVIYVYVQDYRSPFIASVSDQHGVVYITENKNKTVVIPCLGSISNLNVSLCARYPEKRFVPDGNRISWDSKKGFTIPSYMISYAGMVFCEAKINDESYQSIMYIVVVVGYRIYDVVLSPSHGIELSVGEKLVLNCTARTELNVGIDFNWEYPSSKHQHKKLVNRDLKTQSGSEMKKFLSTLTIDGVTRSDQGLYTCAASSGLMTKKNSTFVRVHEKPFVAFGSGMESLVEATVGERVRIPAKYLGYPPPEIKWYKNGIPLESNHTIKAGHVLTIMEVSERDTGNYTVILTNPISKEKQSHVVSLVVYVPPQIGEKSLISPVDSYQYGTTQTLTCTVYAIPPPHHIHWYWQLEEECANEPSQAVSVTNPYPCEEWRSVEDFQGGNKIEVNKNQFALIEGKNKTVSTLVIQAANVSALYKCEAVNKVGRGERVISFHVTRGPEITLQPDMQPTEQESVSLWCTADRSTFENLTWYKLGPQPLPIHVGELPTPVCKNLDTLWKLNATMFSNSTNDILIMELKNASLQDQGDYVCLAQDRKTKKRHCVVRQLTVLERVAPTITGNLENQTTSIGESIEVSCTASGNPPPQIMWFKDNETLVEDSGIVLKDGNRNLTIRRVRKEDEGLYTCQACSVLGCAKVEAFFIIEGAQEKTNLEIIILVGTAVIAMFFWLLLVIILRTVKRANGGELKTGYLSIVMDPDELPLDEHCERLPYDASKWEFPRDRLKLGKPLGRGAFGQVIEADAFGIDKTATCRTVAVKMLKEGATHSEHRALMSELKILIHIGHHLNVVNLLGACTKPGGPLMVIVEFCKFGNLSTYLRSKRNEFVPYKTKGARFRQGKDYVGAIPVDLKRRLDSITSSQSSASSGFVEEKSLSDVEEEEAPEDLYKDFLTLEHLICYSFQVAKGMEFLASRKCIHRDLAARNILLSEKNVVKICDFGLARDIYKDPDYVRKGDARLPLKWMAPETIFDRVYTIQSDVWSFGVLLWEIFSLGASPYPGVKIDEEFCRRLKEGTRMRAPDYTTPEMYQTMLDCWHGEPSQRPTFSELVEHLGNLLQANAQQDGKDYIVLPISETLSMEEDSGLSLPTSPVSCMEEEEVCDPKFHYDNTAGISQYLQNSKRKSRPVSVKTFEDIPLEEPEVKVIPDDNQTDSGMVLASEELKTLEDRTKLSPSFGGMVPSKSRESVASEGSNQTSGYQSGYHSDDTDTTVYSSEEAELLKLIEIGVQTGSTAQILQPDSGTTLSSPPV
- METHOD_NOTES: In vitro phospho-KDR ELISA assay in HUVECs (Test c)
- APPLIED_CONDITIONS: HUVECs stimulated with VEGF, read-out: IC50 versus phospho-tyrosine formation in KDR

# lookup: IC50 of CCn1cc(NC(=O)Cc2ncc(Oc3ccnc4cc(OC)c(OC)cc34)cn2)cn1 ~1000 nM

Next:
# lookup: IC50 of CCc1cc(NC(=O)Cc2ncc(Oc3ccnc4cc(OC)c(OC)cc34)cn2)n[nH]1 ~700 nM
